Listed here: items and their measured inhibition at 20 µM.
- Test system: PC-3
- Test name: Antiproliferative activity against human PC3 cells at 20 uM after 72 hrs by MTT assay
- Format: functional
- Stated conditions: PC-3, 72 h
Return type: number; implicit unit %.

> print(dat)
                                   molecule  assayed.target        assay.readout  unit.symbol  numeric.readout
1  Cc1ccc(S(=O)(=O)Oc2ccc(OCCOCCO)c3c2C(=O)c2ccccc2C3=O)cc1            PC-3  inhibition at 20 µM            %              9.9

Recorded inhibition at 20 µM (molecule `O=C1c2ccccc2C(=O)c2c(OCCOCCOCCO)ccc(OCCOCCOCCO)c21` ): 16.4

Recorded inhibition at 20 µM (molecule `Cc1ccc(S(=O)(=O)Oc2ccc(OCCOCCOCCO)c3c2C(=O)c2ccccc2C3=O)cc1` ): 16.6

Recorded inhibition at 20 µM (molecule `Cc1ccc(S(=O)(=O)Oc2ccc(NCc3ccc(Cl)cc3)c3c2C(=O)c2ccccc2C3=O)cc1` ): 81.2

Each recorded value in this set is attributed to ChEMBL document CHEMBL2440111.
